Listing: Percent inhibition of phospholipase A2 at x µM concentration. of selected compounds
Test system: Phospholipase A2 (Naja naja venom , Sigma)
procedure.summary: Inhibition of phospholipase A2 activity (release of 14C-arachidonic acid from phosphatidylcholine substrate)
Assay type: biochemical
condition: at 20µM; mean ± standard deviation of triplicate samples; 37°C, pH 8.7, CaCl2 4mM
Respond numerically; units are at 20µM % and should not be typed.

Study these solved cases before continuing.
>>> meas_value("CCCCCCC#Cc1ccccc1C#CCCC(C(=O)O)C(=O)O")
23.1
>>> meas_value("CCCCCCC#Cc1ccccc1C#CCCC(C(=O)O)C(=O)OC(C)(C)C (stereo not drawn)")
62.0
>>> meas_value("CCCCCCC#Cc1cccc(/C=C/CCCC(=O)O)c1")
78.9
>>> meas_value("CCCCCC/C=C\\c1ccccc1/C=C/CCCC(=O)O")
72.9
>>> meas_value("CCCCCC/C=C\\c1ccccc1/C=C\\CCC(C(=O)O)C(=O)O")
65.0

// moving on: another record for Percent inhibition of phospholipase A2 at x µM concentration.
Query: Value lookup for Percent inhibition of phospholipase A2 at x µM concentration.; key = CCCCCC/C=C\c1ccccc1/C=C\CCCC(=O)O
Result: 69.8
